Catalogue of IC50 at 48 h values
assay.summary: Cytotoxicity against human L02 cells assessed as cell viability incubated for 48 hrs by MTT assay
Assay type: toxicity, cell-based

chem.smiles | IC50 at 48 h
COc1cc(-c2nc3cc(N4CCOCC4)c(/C=C/C(=O)N(C)C)cc3[nH]2)cc(OC)c1OC | > 100 µM
COc1cc(OC)c(-c2nc3cc(N4CCOCC4)c(C#Cc4ccc(C(F)(F)F)cc4)cc3[nH]2)cc1OC | > 100 µM
COc1cc(-c2nc3cc(N4CCOCC4)c(C#Cc4ccccc4Cl)cc3[nH]2)cc(OC)c1OC | > 100 µM

* * *

assay.summary: Cytotoxicity against human HEK293T cells assessed as cell viability incubated for 48 hrs by MTT assay
Format: toxicity, cell-based, HEK-293T
Catalogue of IC50 at 48 h values

molecule | IC50 at 48 h (µM)
COc1cc(OC)c(-c2nc3cc(N4CCN(C)CC4)c(C#Cc4ccccc4)cc3[nH]2)cc1OC | 4.07
COc1cc(OC)c(-c2nc3cc(N4CCOCC4)c(C#Cc4ccccc4Cl)cc3[nH]2)cc1OC | 0.68
COc1cc(OC)c(-c2nc3cc(N4CCOCC4)c(C#Cc4ccccc4F)cc3[nH]2)cc1OC | 4.83
COc1cc(-c2nc3cc(N4CCOCC4)c(C#Cc4ccccc4)cc3[nH]2)cc(OC)c1OC | 3.73
COc1cc(-c2nc3cc(N4CCOCC4)c(/C=C/C(=O)NC(C)(C)C)cc3[nH]2)cc(OC)c1OC | 11.7
Nc1cc(C(F)(F)F)c(-c2cc(N3CCOCC3)nc(N3CCOCC3)n2)cn1 [BUPARLISIB] | 6.11
COc1cc(OC)c(-c2nc3cc(N4CCOCC4)c(C#Cc4ccccc4)cc3[nH]2)cc1OC | 13.2
COc1cc(-c2nc3cc(N4CCN(C)CC4)c(C#Cc4ccccc4Cl)cc3[nH]2)cc(OC)c1OC | 0.8
COc1cc(OC)c(-c2nc3cc(N4CCN(C)CC4)c(C#Cc4ccccc4Cl)cc3[nH]2)cc1OC | 4.55
COc1cc(-c2nc3cc(N4CCOCC4)c(C#Cc4ccccc4Cl)cc3[nH]2)cc(OC)c1OC | 5.37
COc1cc(-c2nc3cc(N4CCN(C)CC4)c(C#Cc4ccccc4)cc3[nH]2)cc(OC)c1OC | 1.2
COc1cc(-c2nc3cc(N4CCOCC4)c(C#Cc4ccccc4F)cc3[nH]2)cc(OC)c1OC | 38.6
COc1ccc(C#Cc2cc3[nH]c(-c4cc(OC)c(OC)c(OC)c4)nc3cc2N2CCOCC2)cc1 | 2.18
